Tested on: HIV-2
Conditions: Table 3; HIV-2 isolate 03PTHCC19, R5, sensitive (control isolate); TZM-bl cells
pIC50: −log10 of the molar value.
RESULT_TYPE: pIC50

{"COMPOUND": "CC1(C)S[C@H]2N(C(=O)[C@]23CC=C(C(=O)OCc2ccccc2)[C@@H]3C(=O)c2ccccc2)[C@H]1C(=O)OC(c1ccccc1)c1ccccc1 [BSS-730A]", "RESULT_TYPE": "pIC50", "VALUE": 8.10}

---

CC50 listing for selected compounds.
System: TZM-bl cells
Experiment: Cellular viability assay (alamarBlue) in TZM-bl cells
Conditions: read-out: CC50 (cytotoxic concentration 50%); Table 1; TZM-bl cells, 48 hours, alamarBlue
RESULT_TYPE: CC50

{"COMPOUND": "COC(=O)C1C(C(=O)OCc2ccccc2)=CCC12C(=O)N1[C@@H](C(=O)OC(c3ccccc3)c3ccccc3)C(C)(C)S[C@@H]12 (some centres unmarked) [BSS-722A]", "TESTED_ON": "TZM-bl cells", "VALUE": "53.7 µM"}
{"COMPOUND": "COC(=O)C1=C[C@@]2(N=N1)C(=O)N1[C@@H](C(=O)O)C(C)(C)S[C@@H]12 [BSS-593]", "TESTED_ON": "TZM-bl cells", "VALUE": "158 µM"}

---

Test system: P. berghei liver stages
Test: In vitro activity against the liver stage of Plasmodium infection (luciferase assay in Huh7 cells)
Type: cell-based, Plasmodium berghei
Details: P. berghei liver stages in Huh7 cells
RESULT_TYPE: anti-Plasmodium activity (in words)

{"COMPOUND": "COC(=O)C1C(C(=O)OCc2ccccc2)=CCC12C(=O)N1[C@@H](C(=O)OC(c3ccccc3)c3ccccc3)C(C)(C)S[C@@H]12 (some centres unmarked) [BSS-722A]", "VALUE": "presented activity"}
{"COMPOUND": "CC1(C)S[C@H]2N(C(=O)[C@]23CC=C(C(=O)OCc2ccccc2)[C@@H]3C(=O)c2ccccc2)[C@H]1C(=O)OC(c1ccccc1)c1ccccc1 [BSS-730A]", "VALUE": "presented activity"}
{"COMPOUND": "COC(=O)C1=C[C@@]2(N=N1)C(=O)N1[C@@H](C(=O)O)C(C)(C)S[C@@H]12", "VALUE": "presented activity"}

---

Test system: HIV-2
Conditions: HIV-2 primary isolate 15PTHSJIG, R5, resistant to RAL, DTG, 3TC and FTC
pIC50: −log10 of the molar value.

{"COMPOUND": "CC1(C)S[C@H]2N(C(=O)[C@]23CC=C(C(=O)OCc2ccccc2)[C@@H]3C(=O)c2ccccc2)[C@H]1C(=O)OC(c1ccccc1)c1ccccc1 [BSS-730A]", "pIC50": 7.74}

---

System: HIV-2
Settings: HIV-2 primary isolate 10PTHSJIG, R5, resistant to RAL, DTG, LPV, SQV, DRV and all NRTIs

{"COMPOUND": "CC1(C)S[C@H]2N(C(=O)[C@]23CC=C(C(=O)OCc2ccccc2)[C@@H]3C(=O)c2ccccc2)[C@H]1C(=O)OC(c1ccccc1)c1ccccc1 [BSS-730A]", "IC50 / nM": 12}

---

Test system: TZM-bl cells
Test: Cellular viability assay (alamarBlue) in TZM-bl cells
CC50 listing for selected molecules.

{"MOLECULE": "CC(=O)C1=NNC(c2ccccc2)C12C(=O)N1[C@@H](C(=O)OC(c3ccccc3)c3ccccc3)C(C)(C)S[C@@H]12 (some centres unmarked) [BSS-974C]", "CC50 (µM)": 80.8}
{"MOLECULE": "COC(=O)C1C(C(=O)OCc2ccccc2)=CCC12C(=O)N1[C@@H](C(=O)OC(c3ccccc3)c3ccccc3)C(C)(C)S[C@@H]12 (some centres unmarked) [BSS-722A]", "CC50 (µM)": 53.7}
{"MOLECULE": "CC(C)(C)OC(=O)C1=NNC(c2ccccc2)C12C(=O)N1[C@@H](C(=O)OC(c3ccccc3)c3ccccc3)C(C)(C)S[C@@H]12 (some centres unmarked) [BSS-973C]", "CC50 (µM)": 79.8}
{"MOLECULE": "COC(=O)C1=C(C(=O)OC)[C@@]2(N=N1)C(=O)N1[C@@H](C(=O)OC(c3ccccc3)c3ccccc3)C(C)(C)S[C@@H]12", "CC50 (µM)": 82}
{"MOLECULE": "CC(=O)C1=NNC2(C1)C(=O)N1C(C(=O)O)C(C)(C)SC12 (centres unmarked)", "CC50 (µM)": 164}
{"MOLECULE": "CC1(C)S[C@H]2N(C(=O)[C@]23CC=C(C(=O)OCc2ccccc2)[C@@H]3C(=O)c2ccccc2)[C@H]1C(=O)OC(c1ccccc1)c1ccccc1 [BSS-730A]", "CC50 (µM)": 76.8}
{"MOLECULE": "CC(=O)C1C(C)C=C(C(=O)OCc2ccccc2)C12C(=O)N1[C@@H](C(=O)OC(c3ccccc3)c3ccccc3)C(C)(C)S[C@@H]12 (some centres unmarked) [BSS-794B]", "CC50 (µM)": 49}
{"MOLECULE": "COC(=O)C1=C[C@@]2(N=N1)C(=O)N1[C@@H](C(=O)OC(c3ccccc3)c3ccccc3)C(C)(C)S[C@@H]12", "CC50 (µM)": 105}
